The entries that follow carry pIC50 values tested on Tissue-type plasminogen activator (Homo sapiens), drawn from several published reports.
pIC50: −log10 of the molar value.
property label: pIC50

>>> value("Cc1nc(N)cc2c1CNC(=O)c1cnn(c1)Cc1ccc(Cn3cccn3)cc1OCCC/C=C\\CCO2")
"< 3.70"
>>> value("C[C@](NC(=O)C(F)(F)F)(C(=O)N1CC[C@H]1C(=O)N[C@H](C=O)CCCN=C(N)N)c1ccccc1")
3.89
>>> value("CC(=N)NCc1ccc(C(=O)Nc2ccc(Cl)cc2C(=O)Nc2ccc(Cl)cn2)cc1")
"< 4.96"
>>> value("CN1CCN=C1N(C)Cc1ccc(C(=O)Nc2ccc(Cl)cc2C(=O)Nc2ccc(Cl)cn2)cc1")
"< 4.96"
>>> value("CC(C)(C)OC(=O)N[C@H](Cc1ccccc1)C(=O)N1CC[C@H]1C(=O)N[C@H](C=O)CCCNC(=N)N")
6.05
>>> value("Cc1nc(N)cc2c1CNC(=O)c1cnn(c1)Cc1ccc(Cn3cccn3)cc1OCCCC=CCCO2 (mixture of isomers)")
"< 3.70"
>>> value("NC1CCN(Cc2ccc(C(=O)Nc3ccc(Cl)cc3C(=O)Nc3ccc(Cl)cn3)cc2)CC1")
"< 4.96"
>>> value("O=C(Nc1ccc(Cl)cc1C(=O)Nc1ccc(Cl)cn1)c1ccc(CN2CCCC2)cc1")
"< 4.96"
>>> value("N=C(N)NCCCC(NC(=O)CN1CCN(S(=O)(=O)c2cccc3cccnc23)CC1=O)C(=O)c1nccs1 (stereo not drawn)")
6.82
>>> value("Cc1ccc(C(=O)O)c(Oc2nc(Oc3cc(N)cc(-c4cccc(CN)c4)c3)c(F)cc2F)c1")
"< 4.52"
>>> value("COc1ccc(-c2ccc(C(=O)N[C@H](CO)C(C)(C)C)cc2C(=O)O)c(C(=O)Nc2ccc(C(=N)N)cc2)n1")
"< 4.48"
>>> value("COc1ccc(-c2ccc(C(=O)NCC(C)(C)C)cc2C(=O)O)c(C(=O)Nc2ccc3c(N)nccc3c2)n1")
"< 4.48"
>>> value("N=C(N)c1cccc(C(=O)N[C@@H](C(=O)Nc2ccc(-c3ccccc3S(N)(=O)=O)cc2)c2ccccc2)c1")
"< 3.74"
>>> value("N=C(NO)c1nc(Cl)c(NCC(=O)O)nc1N")
"< 3.60"
>>> value("O=C(Nc1ccc(Cl)cc1C(=O)Nc1ccc(Cl)cn1)c1ccc(CN2CCCC2=O)cc1")
"< 4.96"
>>> value("CC(C)(C)OC(=O)N[C@@H](Cc1ccccc1)C(=O)N1CCCC[C@H]1C(=O)N[C@H](C=O)CCCNC(=N)N")
4.32
>>> value("CC(C)(C)OC(=O)N[C@@](C)(C(=O)N1CC[C@H]1C(=O)N[C@H](C=O)CCCN=C(N)N)c1ccccc1")
3.92
>>> value("CC[C@@H](Oc1nc(Oc2cc(C)cc(-c3cccc(CN)c3)c2)c(F)cc1F)C(=O)O")
5.80
>>> value("N=C(N)NCCC[C@@H](C=O)NC(=O)[C@@H]1CCCN1C(=O)[C@@H]1C[C@@H]2CCCC[C@@H]2CN1")
4.52
>>> value("NC(=O)c1nc(Cl)c(NCC(=O)OCc2ccccc2)nc1N")
"< 3.60"
>>> value("CC(C)(C)OC(=O)NC(Cc1ccccc1)C(=O)N1CSCC1C(=O)N[C@H](C=O)CCCN=C(N)N (stereo in doubt)")
4.64
>>> value("Cc1ccc(C(=O)O)c(Oc2nc(Oc3cc(O)cc(-c4cccc(CN)c4)c3)c(F)cc2F)c1")
4.85
>>> value("CC(=N)N(C)Cc1ccc(C(=O)Nc2ccc(Cl)cc2C(=O)Nc2ccc(Cl)cn2)cc1")
"< 4.96"
>>> value("COCCN(C)Cc1ccc(C(=O)Nc2ccc(Cl)cc2C(=O)Nc2ccc(Cl)cn2)cc1")
"< 4.96"
>>> value("CN(C)c1ccc(C(=O)O)c(Oc2nc(Oc3cccc(-c4cccc(CN)c4)c3)c(F)c(N(C)C)c2F)c1")
"< 4.52"
>>> value("CC(C)c1cc(-c2ccc3c(c2)[C@H](N)CO3)cc(C(O)Cn2ccc3cccc(C(=O)O)c32)c1 (mixture of isomers)")
5.43
>>> value("CNCCN(C)Cc1ccc(C(=O)Nc2ccc(Cl)cc2C(=O)Nc2ccc(Cl)cn2)cc1")
"< 4.96"
>>> value("O=C(Nc1ccc(Cl)cc1C(=O)Nc1ccc(Cl)cn1)c1ccc(CN2CCOCC2)cc1")
"< 4.96"

###

The entries that follow carry IC50 values tested on Tissue-type plasminogen activator (Homo sapiens, UniProt P00750), drawn from several published reports.
Sequence (P00750 whole entry): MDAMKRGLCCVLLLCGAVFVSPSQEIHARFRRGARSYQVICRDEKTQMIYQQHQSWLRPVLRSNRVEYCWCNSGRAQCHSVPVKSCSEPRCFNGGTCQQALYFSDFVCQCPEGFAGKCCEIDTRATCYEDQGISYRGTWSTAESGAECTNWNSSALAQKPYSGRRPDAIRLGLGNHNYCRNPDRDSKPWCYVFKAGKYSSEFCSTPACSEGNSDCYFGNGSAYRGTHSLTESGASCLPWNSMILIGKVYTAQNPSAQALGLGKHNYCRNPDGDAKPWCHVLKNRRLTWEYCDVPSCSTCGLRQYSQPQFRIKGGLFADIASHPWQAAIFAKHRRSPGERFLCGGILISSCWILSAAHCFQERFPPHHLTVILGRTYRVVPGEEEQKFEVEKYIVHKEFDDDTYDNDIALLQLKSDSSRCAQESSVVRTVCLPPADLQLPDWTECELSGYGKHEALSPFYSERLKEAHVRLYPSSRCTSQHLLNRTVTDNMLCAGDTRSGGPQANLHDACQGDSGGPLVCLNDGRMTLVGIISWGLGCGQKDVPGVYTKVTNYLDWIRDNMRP
property label: IC50

>>> value("Cc1cc(C(=O)Nc2ccc(-c3ccccc3CN(C)C)cc2F)n(-c2ccc3cc(Cl)ccc3c2)n1")
"> 10 µM"
>>> value("N=C(N)NCCC[C@@H](NC(=O)CN1CCN(S(=O)(=O)Cc2ccccc2)CC1=O)C(=O)c1nccs1")
"4.01 µM"
>>> value("CN(C)c1ccc(C(=O)O)c(Oc2nc(Oc3cccc(-c4cccc(CN)c4)c3)c(F)c(N3CCNCC3)c2F)c1")
"11 µM"
>>> value("N=C(N)c1ccc(CNC(=O)[C@@H]2C=CCN2C(=O)[C@@H](CC2CCCCC2)NCC(=O)O)cn1")
"0.54 µM"
>>> value("NC(N)=NC(=O)c1ncc(NCC(=O)O)nc1N")
"> 250 µM"
>>> value("N=C(N)N1CCC[C@H](NC(=O)C2CCN2C(=O)[C@@H](CO)NC(=O)OCc2ccccc2)C1O (stereo not given in full)")
"> 2.5 µM"
>>> value("NCc1cccc(-c2cccc(Oc3nc(Oc4ccccc4C(=O)O)c(F)cc3F)c2)c1")
"> 30 µM"
>>> value("N=C1OCCN1Cc1ccc(C(=O)Nc2ccc(Cl)cc2C(=O)Nc2ccc(Cl)cn2)cc1")
"> 11 µM"
>>> value("CCOC(=O)CN(C)Cc1ccc(C(=O)Nc2ccc(Cl)cc2C(=O)Nc2ccc(Cl)cn2)cc1")
"> 11 µM"
>>> value("Cn1cc(NS(=O)(=O)Cc2ccccc2)c(=O)n(CC(=O)N[C@H]2CCCN(C(=N)N)C2O)c1=O (stereo not given in full)")
"> 2.5 µM"
>>> value("CNCc1ccc(C(=O)Nc2ccc(Cl)cc2C(=O)Nc2ccc(Cl)cn2)cc1")
"> 11 µM"
>>> value("C[C@H](NC(=O)[C@@H](CO)NC(=O)OCc1ccccc1)C(=O)N[C@H]1CCCN(C(=N)N)C1O (stereo not given in full)")
"> 2.5 µM"
>>> value("COc1ccc(-c2ccc(C(=O)N[C@H](CO)C(C)(C)C)cc2C(=O)O)c(C(=O)Nc2cccc(C(N)=O)c2)n1")
"> 33 µM"
>>> value("CN(CC(=O)O)Cc1ccc(C(=O)Nc2ccc(Cl)cc2C(=O)Nc2ccc(Cl)cn2)cc1")
"> 11 µM"
>>> value("CC(C)(C)[C@@H](Oc1nc(Oc2cccc(-c3cccc(CN)c3)c2)c(F)cc1F)C(=O)O")
"1.45 µM"
>>> value("CC1(C)COc2c(COc3ccccc3CC(=O)O)cc(-c3ccc4c(c3)[C@H](N)CCO4)cc21")
"0.19 µM"
>>> value("CN(C)CCN(C)c1c(F)c(Oc2cccc(-c3cccc(CN)c3)c2)nc(Oc2cc(N(C)C)ccc2C(=O)O)c1F")
"28 µM"
>>> value("CN(C)NCc1ccc(C(=O)Nc2ccc(Cl)cc2C(=O)Nc2ccc(Cl)cn2)cc1")
"> 11 µM"
>>> value("NS(=O)(=O)c1ccccc1-c1ccc(C(=O)Nc2ccccc2C(=O)Nc2ccc(Br)cn2)cc1")
"> 10 µM"
>>> value("C[C@H](NC(=O)[C@@](C)(CO)NC(=O)OCc1ccccc1)C(=O)N[C@H]1CCCN(C(=N)N)C1O (stereo not given in full)")
"> 2.5 µM"
>>> value("CC(C)(C)[C@@H](Oc1nc(Oc2cc(C#N)cc(-c3cccc(CN)c3)c2)c(F)cc1F)C(=O)O")
"5.7 µM"
>>> value("COc1cc(Oc2nc(O[C@@H](C(=O)O)C(C)(C)C)c(F)cc2F)cc(-c2cccc(CN)c2)c1")
"1.85 µM"
>>> value("C[N+](C)(C)Cc1ccc(C(=O)Nc2ccc(Cl)cc2C(=O)Nc2ccc(Cl)cn2)cc1")
"> 11 µM"
>>> value("CN(CCN(C)C(=N)N)Cc1ccc(C(=O)Nc2ccc(Cl)cc2C(=O)Nc2ccc(Cl)cn2)cc1")
"> 11 µM"
>>> value("CN(C)C(=N)c1ccc(C(=O)Nc2ccc(Cl)cc2C(=O)Nc2ccc(Cl)cn2)c(F)c1")
"> 10 µM"
>>> value("Cc1ccc(C(=O)O)c(Oc2nc(Oc3cccc(-c4cccc(CN)c4)c3)c(F)cc2F)c1")
"22 µM"
>>> value("COc1cccc(C(=O)O)c1OCC(O)c1cc(-c2ccc3c(c2)[C@H](N)CO3)cc(C(C)C)c1 (mixture of isomers)")
"6.68 µM"
>>> value("CCN(CC)Cc1ccc(C(=O)Nc2ccc(Cl)cc2C(=O)Nc2ccc(Cl)cn2)cc1")
"> 11 µM"
>>> value("Cc1cc(C(=O)Nc2ccc(-c3ccccc3CN)cc2F)n(-c2cc3ccccc3cc2F)n1")
"> 10 µM"
>>> value("CN(Cc1ccc(C(=O)Nc2ccc(Cl)cc2C(=O)Nc2ccc(Cl)cn2)cc1)C1=NCCN1")
"> 11 µM"
>>> value("Cc1nc(N)cc2c1CNC(=O)c1cnn(c1)Cc1ccc(Cn3cccn3)cc1OCCC/C=C/CCO2")
"> 200 µM"
>>> value("Cc1cc(C(=O)Nc2ccc(-c3ccccc3S(C)(=O)=O)cc2F)n(-c2cc3ccccc3cc2S(C)(=O)=O)n1")
"> 10 µM"
>>> value("CC(C)c1cc(-c2ccc3c(c2)[C@H](N)CO3)cc([C@@H]2CNc3cccc(CC(=O)O)c3O2)c1")
"0.05 µM"
>>> value("Cc1c(F)c(Oc2cccc(-c3cccc(C(=N)N)c3)c2)nc(Oc2cc(N(C)C)ccc2C(=O)O)c1F")
"3.9 µM"
>>> value("N=C(N)NCCCC(NC(=O)CN1CCN(S(=O)(=O)c2ccc3ccccc3c2)CC1=O)C(=O)c1nccs1 (stereo not given)")
"1.85 µM"
